Tested on: Cell membrane
TEST PROTOCOL: Induction of membrane depolarization in methicillin-resistant Staphylococcus aureus USA300 assessed as measuring minimum effective concentration by DiSC3(5) dye-based fluorescence assay
READOUT TYPE: MEC (µg/mL)
Answer in µg/mL, number only, no unit symbol.

C=CCN1C(=O)C(Cl)=C(Cl)C12Oc1c(cc(Cl)c(O)c1CCCCCC)C2=O (stereo unspecified)	0.25
CCCCCCc1c(OC)c(Cl)cc2c1OC1(C2=O)C(Cl)=C(Cl)C(=O)N1C (stereo unspecified)	4
Cc1c(O)c(Cl)cc2c1OC1(C2=O)C(Cl)=C(Cl)C(=O)N1Cc1ccc(C(F)(F)F)cc1 (stereo unspecified)	2

I am curious: what MEC value has been reported for CCCCCCN1C(=O)C(Cl)=C(Cl)C12Oc1c(cc(Cl)c(O)c1C)C2=O (stereo unspecified) ? 0.5

I am curious: what MEC value has been reported for CCCCCCc1c(O)c(Cl)cc2c1OC1(C2=O)C(Cl)=C(Cl)C(=O)N1Cc1ccc(C(F)(F)F)cc1 (stereo unspecified) ? 0.125

I am curious: what MEC value has been reported for Cc1c(O)c(Cl)cc2c1OC1(C2=O)C(Cl)=C(Cl)C(=O)N1C (stereo unspecified) ? 8

I am curious: what MEC value has been reported for C=CCN1C(=O)C(Cl)=C(Cl)C12Oc1c(cc(Cl)c(O)c1C)C2=O (stereo unspecified) ? 8

----------
Test system: Staphylococcus aureus
TEST PROTOCOL: Antibacterial activity against Staphylococcus aureus USA300 assessed as bacterial growth inhibition by checkerboard assay
Assay type: functional
READOUT TYPE: MIC (µg/mL)
Answer in µg/mL, number only, no unit symbol.

The cases that follow already have their MIC on record.
CCCCCCCCCCCCN1C(=O)C(Cl)=C(Cl)C12Oc1c(cc(Cl)c(O)c1CCCCCC)C2=O (stereo unspecified)	16
CCCCCCCCCCCCN1C(=O)C(Cl)=C(Cl)C12Oc1c(cc(Cl)c(O)c1C)C2=O (stereo unspecified)	1
Cc1c(O)c(Cl)cc2c1OC1(C2=O)C(Cl)=C(Cl)C(=O)N1Cc1ccc(C(F)(F)F)cc1 (stereo unspecified)	16

I am curious: what MIC value has been reported for CCCCCCc1c(O)c(Cl)cc2c1OC1(C2=O)C(Cl)=C(Cl)C(=O)N1Cc1ccc(C)cc1 (stereo unspecified) ? 0.5

I am curious: what MIC value has been reported for CCCCCCN1C(=O)C(Cl)=C(Cl)C12Oc1c(cc(Cl)c(O)c1C)C2=O (stereo unspecified) ? 4

I am curious: what MIC value has been reported for CCCCCCc1c(O)c(Cl)cc2c1OC1(C2=O)C(Cl)=C(Cl)C(=O)N1Cc1ccc(C(F)(F)F)cc1 (stereo unspecified) ? 2

I am curious: what MIC value has been reported for Cc1c(O)c(Cl)cc2c1OC1(C2=O)C(Cl)=C(Cl)C(=O)N1Cc1ccccc1 (stereo unspecified) ? 32

I am curious: what MIC value has been reported for CCCCCCc1c(O)c(Cl)cc2c1OC1(C2=O)C(Cl)=C(Cl)C(=O)N1C (stereo unspecified) ? 4

----------
Test system: Cell membrane
TEST PROTOCOL: Induction of membrane depolarization in methicillin-resistant Staphylococcus aureus USA300 assessed as measuring minimum effective concentration by DiSC3(5) dye-based fluorescence assay
READOUT TYPE: MEC (µg/mL)
Answer in µg/mL, number only, no unit symbol.

I am curious: what MEC value has been reported for CCCCCCc1c(O)c(Cl)cc2c1OC1(C2=O)C(Cl)=C(Cl)C(=O)N1C (centres undefined) ? 0.5

I am curious: what MEC value has been reported for CCCCCCc1c(O)c(Cl)cc2c1OC1(C2=O)C(Cl)=C(Cl)C(=O)N1Cc1ccccc1 (centres undefined) ? 0.5

I am curious: what MEC value has been reported for CCCCCCCCCCCCN1C(=O)C(Cl)=C(Cl)C12Oc1c(cc(Cl)c(O)c1C)C2=O (centres undefined) ? 0.25

----------
System: Staphylococcus aureus
TEST PROTOCOL: Antibacterial activity against Staphylococcus aureus USA300 assessed as bacterial growth inhibition by checkerboard assay
Type: functional
READOUT TYPE: MIC (µg/mL)
Answer in µg/mL, number only, no unit symbol.

The cases that follow already have their MIC on record.
CCCCCCc1c(O)c(Cl)cc2c1OC1(C2=O)C(Cl)=C(Cl)C(=O)N1CCCCCC (stereo not drawn)	1
C=CCN1C(=O)C(Cl)=C(Cl)C12Oc1c(cc(Cl)c(O)c1CCCCCC)C2=O (stereo not drawn)	4
CCCCCCc1c(OC)c(Cl)cc2c1OC1(C2=O)C(Cl)=C(Cl)C(=O)N1CCCCCC (stereo not drawn)	4
CCCCCCc1c(O)c(Cl)cc2c1OC1(C2=O)C(Cl)=C(Cl)C(=O)N1Cc1ccccc1 (stereo not drawn)	1

// below: MIC requested for another compound
Could you share what MIC was measured for CCCCCCc1c(O)c(Cl)cc2c1OC1(C2=O)C(Cl)=C(Cl)C(=O)N1CCc1ccccc1 (stereo not drawn) , tested on Staphylococcus aureus? 0.5

----------
Test system: Cell membrane
TEST PROTOCOL: Induction of membrane depolarization in methicillin-resistant Staphylococcus aureus USA300 assessed as measuring minimum effective concentration by DiSC3(5) dye-based fluorescence assay
READOUT TYPE: MEC (µg/mL)
Answer in µg/mL, number only, no unit symbol.

CCCCCCc1c(O)c(Cl)cc2c1OC1(C2=O)C(Cl)=C(Cl)C(=O)N1CCc1ccccc1 (stereo unspecified)	0.125
Cc1c(O)c(Cl)cc2c1OC1(C2=O)C(Cl)=C(Cl)C(=O)N1Cc1ccccc1 (stereo unspecified)	4
CCCCCCc1c(O)c(Cl)cc2c1OC1(C2=O)C(Cl)=C(Cl)C(=O)N1CCCCCC (stereo unspecified)	0.0312
CCCCCCc1c(OC)c(Cl)cc2c1OC1(C2=O)C(Cl)=C(Cl)C(=O)N1CCCCCC (stereo unspecified)	0.125

// below: MEC requested for another compound
Could you share what MEC was measured for CCCCCCc1c(O)c(Cl)cc2c1OC1(C2=O)C(Cl)=C(Cl)C(=O)N1Cc1ccc(C)cc1 (stereo unspecified) , tested on Cell membrane? 0.125

----------
Tested on: Staphylococcus aureus
TEST PROTOCOL: Antibacterial activity against Staphylococcus aureus USA300 assessed as bacterial growth inhibition by checkerboard assay
Type: functional
READOUT TYPE: MIC

The cases that follow already have their MIC on record.
CCCCCCc1c(OC)c(Cl)cc2c1OC1(C2=O)C(Cl)=C(Cl)C(=O)N1C (stereo not drawn)	> 32 µg/mL
C=CCN1C(=O)C(Cl)=C(Cl)C12Oc1c(cc(Cl)c(O)c1C)C2=O (stereo not drawn)	> 32 µg/mL

// below: MIC requested for another compound
I am curious: what MIC value has been reported for Cc1c(O)c(Cl)cc2c1OC1(C2=O)C(Cl)=C(Cl)C(=O)N1C (stereo not drawn) ? > 32 µg/mL

From: ChEMBL document CHEMBL5252598
